Target Entity: HIV-1 Env of C1080.c3 (HIV-1)
Protocol Summary: cell-based or functional assay
Measured Property: neutralization IC50 (µg/mL)
Just the number please, in µg/mL, no unit attached.

| Binder | neutralization IC50 (µg/mL) |
| --- | --- |
| CAP256-VRC26.08 (antibody, V domains shown) VH: EVQLVESGGGVVQPGRSLTLSCAASQFTFSNYGMHWVRQAPGKGLEWVASVSNDGTKKYHGDSVWGRFTISRDNSKNTLFLQMSSLRAEDTAVYFCVRDQREDECEEWWSDYYDFGRELPCRKFRGLGLAGIFDIWGHGTMVTVSS VL: QSALTQPPSVSAAPGQKVTISCSGNSSNIGNNFVSWYQQVPGTAPKLLLYETYRRPSGIPDRFSGSKSGTSATLAITGLQTGDEADYYCTVWGVRKGVGAVFGTGTKVTVLG | 0.012 |

Shifting focus to the binder that follows.
neutralization IC50 for CAP256-VRC26.03 (antibody, V domains shown) VH: EVQLVESGGGVVQPGKSLRLSCAASRFSFNRYGMHWVRQAPGKGLEWVAAISYDGTDKYHADKVWGRFTISRDNSKNTLYLQMNSLRAEDTALYYCAKDLREDECEEWWSDYYDFGKQLPCRKSRGVAGIFDGWGQGTMVTVSS VL: QSVLTQPPSVSAAPGQKVTISCSGSSSNIGNNFVSWYQQRPGTAPKILIYENNKRPSETPDRFSGSKSGTSATLAITGLQTADEAEYYCATWSASLSSARVFGTGTRITVLG ?
0.119
